test system: MDA-MB-468 breast; experiment: NCI-60 one-dose screen, 48 h; details: 10 µM unless noted
This is part of a sample that, as a whole, favours compounds with a hit. Of some 83,000 tested, about 20% had one in any assay. Activity calls are given as the source filed them. The calls were made as follows: active = growth percent below 10; inactive = the rest.
The reply should name one outcome from active, inactive

-- ask What did this assay record as the result for CN[C@]1(c2ccccc2Cl)CCCC[C@H]1NCCCN1CCN(C)CC1 ?
-- reply inactive

-- ask Any idea what this test logged for C[C@@]1(CCCCCCCCCc2ccc(O)cc2)C[C@]2(C)OC(=O)C[C@@H]2OO1 ?
-- reply inactive

-- ask Please share the test call associated with O=[N+]([O-])c1cc([N+](=O)[O-])c(Nn2c3ccccc3c3ccccc32)c([N+](=O)[O-])c1 .
-- reply active

-- ask Field: outcome | Entry: CCOc1ccc(/C=C/[N+](=O)[O-])cc1
-- reply inactive

-- ask What did the test return for COc1ccc(NC([Se])=NC23CC4CC(CC(C4)C2)C3)cc1 ?
-- reply active

====

test system: MDA-MB-468 breast; assay: NCI-60 one-dose screen, 48 h; settings: 10 µM unless noted
The panel holds about 83,000 compounds, 20% with a hit somewhere; the sample as a whole holds those more often. Activity calls are given as the source filed them. How the source made its calls: active means growth percent below 10; inactive means the rest.
Would you mind answering with one of these outcomes? active, inactive

-- ask Check the results log: what was the call for ClCCN(CCCl)C(c1ccccc1)c1ccc(Cl)cc1 (centres undefined) ?
-- reply inactive

-- ask Can you look up the reported call for C[C@]12CCc3sc(Nc4ccc(O)cc4)nc3C1=CC[C@@H]1[C@@H]2CC[C@]2(C)C(=O)CC[C@@H]12 for me?
-- reply active

-- ask Please indicate how the test categorized COC(=O)[C@@H](C)C[C@H](Cc1ccccc1)NC(=O)c1csc([C@@H](C[C@H](C(C)C)N(C)C(=O)C2(NC(=O)[C@H]3CCCCN3C)CCC2)OC(C)=O)n1 .
-- reply active

-- ask Tell me the recorded outcome of this test for COc1ccc2c(c1)c(-c1nc(-c3cn(C)c4ncccc34)cs1)cn2CCCCN1CCCCC1 .
-- reply active

-- ask Hey, what did the test say about C[C@@H]1C[C@H]2C(=O)O[C@@H](C)C(NC(=O)[C@H](Cc3cc(F)cc(F)c3)NC(=O)Nc3ccc(OS(=O)(=O)F)cc3)C(=O)N3CCC[C@H]3C(=O)N3CCO[C@H](C)[C@H]3C(=O)N[C@@H](CO)C(=O)N2C1 (some centres undefined) ?
-- reply active

-- ask Short answer needed: outcome of this test for COC(=O)[C@H](Cc1c[nH]c2ccccc12)NC(=O)[C@@H](OC)[C@@H]1Cc2cc3cc(OC4CC(OC5CC(O)C(O)C(C)O5)C(O)C(C)O4)c(C)c(O)c3c(O)c2C(=O)[C@H]1OC1CC(OC2CC(OC3CC(C)(O)C(O)C(C)O3)C(O)C(C)O2)C(O)C(C)O1 (some centres undefined) ?
-- reply active

-- ask Call for entry CCn1c2ccccc2c2cc(C(=O)c3cccc4c3CCCN4)ccc21 :
-- reply inactive

-- ask Could you kindly confirm the outcome this assay logged for O=S(=O)(O)c1ccc(-c2ccc([As](=O)(O)O)cc2)cc1 ?
-- reply inactive

-- ask What classification did CCCCCC1(CCBr)C(=O)NC(=O)NC1=O end up with in this test?
-- reply inactive

-- ask So what was the verdict on [Cl][Hg][n]1c(-c2ccco2)nc2ccccc21 in this test?
-- reply inactive

-- ask Answer briefly: the call reported for CC(=O)OC1CCC2C3CCC4=C/C(=N/OC(=O)c5ccc(N(CCCl)CCCl)cc5)CCC4(C)C3CC(C)C12 (centres undefined) in this assay.
-- reply inactive

-- ask Just curious, what result did CCCN1C(=O)NC(=O)C(CC)(N2C(=O)c3c(F)c(F)c(F)c(F)c3C2=O)C1=O (centres undefined) get here?
-- reply active

-- ask // outcome(item) with item = C[N+]1(CC#CC[N+]2(C)CCCC2)CCCC1
-- reply inactive

-- ask What was the test verdict on ClCCN(CCCl)c1nc(Cl)c(C2CC(c3ccc(Cl)cc3)=NN2c2cc(Cl)cc(Cl)c2)s1 (centres undefined) ?
-- reply inactive

-- ask What was the test verdict on O=C(/C=C/c1ccc(F)cc1)c1nc2ccccc2n1Cc1ccc(Br)cc1 ?
-- reply active

-- ask Hi, do you know how CC1(C)N=C(N)N=C(N)N1c1ccc(CCC(=O)Nc2cccc(S(=O)(=O)F)c2)cc1 came out in this test?
-- reply inactive

-- ask I'd appreciate the recorded outcome for O=[N+]([O-])c1cc[n+]([O-])c2ccccc12 from this test.
-- reply active

-- ask Which result was noted for this compound in the test: C[C@@H]1C[C@@]2(C)[C@@H](CC[C@@H]3[C@@H]2CC[C@]2(C)C(=O)CC[C@@H]32)CC1=O
-- reply inactive

-- ask For O=C1NC(=O)C(=Cc2cn(C(=O)c3ccccc3)c3ccccc23)C(=O)N1 , what call appears in the results of this test?
-- reply inactive

-- ask Hi team, can someone confirm the assay call for Cc1sc2c(c1C)C(c1ccc(Cl)cc1)=N[C@@H](CC(=O)OC(C)(C)C)c1nnc(C)n1-2 ?
-- reply active

-- ask Please share the test call associated with COP(=S)(OC)Oc1ccc(SC)c(C)c1 .
-- reply inactive

-- ask Given CC(C)OC(=O)[C@H](C)NP(=O)(Oc1ccccc1)C1CCCN(O)C1=O (some centres undefined) , state the outcome it received in this test.
-- reply inactive

-- ask GET /call?item= O=C(CC1(O)C(=O)Nc2ccccc21)c1ccc(C(=O)NCC2CCC3(CC2)OOC2(CCCCC2)OO3)cc1 (centres undefined) returns the recorded outcome of this test.
-- reply inactive

-- ask Field: outcome | Entry: CC[C@H](C)[C@H](NC(=O)c1cccn1C)C(=O)N(C)[C@H](C[C@@H](OC(C)=O)c1nc(C(=O)N[C@@H](Cc2ccccc2)C[C@H](C)C(=O)OC)cs1)C(C)C
-- reply inactive

-- ask Write down the call the test reported for this compound. Item: C#COc1cccc(Nc2ncnc3cc(NC(=O)CF)ccc23)c1
-- reply inactive

-- ask How did this test come out for CC[C@]12C=CCN3CC[C@@]4(c5ccc(OC)cc5N(C)[C@H]4[C@@](O)(C(=O)OC)[C@@H]1OC(=O)CCCC[P+](c1ccc(C)cc1)(c1ccc(C)cc1)c1ccc(C)cc1)[C@@H]32 ?
-- reply active

-- ask Identify the outcome logged in this assay for the compound shown: O=[N+]([O-])c1ccc(OP(=O)(CCl)N(CCCl)CCCl)cc1 (centres undefined)
-- reply inactive

-- ask Field: outcome | Entry: O=C1OCC2=C1C(c1ccccc1)c1cc3c(cc1N2)OCO3 (centres undefined)
-- reply active

-- ask In this assay, the call recorded for CC(=O)OC1CCC2(C)C(CCC3C2CC(=O)C2(C)C3CC(Sc3ccc(N(CCCl)CCCl)cc3)C2C(C)=O)C1 (centres undefined) was what?
-- reply inactive

-- ask Per the assay record, what outcome was assigned to O=[As](O)(O)c1ccccc1[As](=O)(O)O ?
-- reply inactive

-- ask Each compound tested received a call. Report the one for CCCC[C@H](NC(=O)[C@H]1CCCN1C)C(=O)N(C)[C@H](C[C@@H](OC(C)=O)c1nc(C(=O)N[C@@H](Cc2ccccc2)C[C@H](C)C(=O)OCC)cs1)C(C)C .
-- reply active

-- ask For O=C(CBr)Nc1ccc(Cl)cc1 , what call appears in the results of this test?
-- reply inactive

-- ask Check the results log: what was the call for COC(=O)[C@@]1(O)C[C@H]2O[C@]1(C)n1c3ccccc3c3c4c(c5c6ccccc6n2c5c31)C(=O)NC4 ?
-- reply active

-- ask Entry O=C(O)CNC(=O)c1ccccc1 : call = ?
-- reply inactive
